- Target desc: CYP2D6 (Homo sapiens, UniProt P10635)
- Sequence (P10635 whole entry): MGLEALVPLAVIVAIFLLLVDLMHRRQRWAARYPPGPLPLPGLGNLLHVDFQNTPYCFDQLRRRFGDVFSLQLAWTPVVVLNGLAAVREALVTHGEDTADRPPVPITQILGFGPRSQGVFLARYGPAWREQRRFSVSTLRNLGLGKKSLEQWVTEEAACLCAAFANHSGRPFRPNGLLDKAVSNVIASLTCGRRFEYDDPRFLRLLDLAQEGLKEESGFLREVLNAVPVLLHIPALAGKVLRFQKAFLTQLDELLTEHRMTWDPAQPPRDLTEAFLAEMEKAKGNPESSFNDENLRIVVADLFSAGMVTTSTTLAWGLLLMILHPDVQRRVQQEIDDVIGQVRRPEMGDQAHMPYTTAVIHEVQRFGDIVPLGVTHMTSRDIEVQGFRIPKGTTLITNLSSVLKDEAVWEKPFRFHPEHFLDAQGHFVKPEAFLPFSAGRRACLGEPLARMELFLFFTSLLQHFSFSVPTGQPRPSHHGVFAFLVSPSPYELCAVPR
- Test summary: Metabolism-dependent CYP2D6 inhibition assay (IC50 shift) using pooled HLM
- Stated conditions: pooled HLM; pre-incubation with NADPH
Endpoint label: MDI (metabolism-dependent inhibition) of CYP2D6 (in words)

COc1c(O)ccc2cc3[n+](cc12)CCc1cc2c(cc1-3)OCO2 [TFD, thalifendine] = exhibited MDI
COc1ccc2cc3[n+](cc2c1OC)CCc1cc(O)c(O)cc1-3 [DMB, demethyleneberberine] = not
COc1ccc2c(c1OC)CN1CCc3cc4c(cc3C1C2)OCO4 (stereo not shown) [THB, tetrahydroberberine] = exhibited MDI
COc1ccc2cc3[n+](cc2c1OC)CCc1cc2c(cc1-3)OCO2 [BBR, berberine] = exhibited MDI

* * *

- Target desc: CYP2D6 (Homo sapiens, UniProt P10635)
- Test summary: Direct CYP inhibition assay using pooled HLM
For each of the compounds below, state its pIC50.
Scale note: pIC50 = -log10(concentration in M).

// fetch pIC50 for "COc1cc2c(cc1O)CC[n+]1cc3c(OC)c(OC)ccc3cc1-2" ; system: CYP2D6 (Homo sapiens, UniProt P10635)
5.00

// fetch pIC50 for "COc1ccc2cc3[n+](cc2c1O)CCc1cc2c(cc1-3)OCO2" ; system: CYP2D6 (Homo sapiens, UniProt P10635)
4.35

// fetch pIC50 for "COc1ccc2cc3[n+](cc2c1OC)CCc1cc2c(cc1-3)OCO2" ; system: CYP2D6 (Homo sapiens, UniProt P10635)
4.92

// fetch pIC50 for "COc1c(O)ccc2cc3[n+](cc12)CCc1cc2c(cc1-3)OCO2" ; system: CYP2D6 (Homo sapiens, UniProt P10635)
4.55

* * *

- Target desc: CYP2C9 (Homo sapiens, UniProt P11712)
- Sequence (P11712 whole entry): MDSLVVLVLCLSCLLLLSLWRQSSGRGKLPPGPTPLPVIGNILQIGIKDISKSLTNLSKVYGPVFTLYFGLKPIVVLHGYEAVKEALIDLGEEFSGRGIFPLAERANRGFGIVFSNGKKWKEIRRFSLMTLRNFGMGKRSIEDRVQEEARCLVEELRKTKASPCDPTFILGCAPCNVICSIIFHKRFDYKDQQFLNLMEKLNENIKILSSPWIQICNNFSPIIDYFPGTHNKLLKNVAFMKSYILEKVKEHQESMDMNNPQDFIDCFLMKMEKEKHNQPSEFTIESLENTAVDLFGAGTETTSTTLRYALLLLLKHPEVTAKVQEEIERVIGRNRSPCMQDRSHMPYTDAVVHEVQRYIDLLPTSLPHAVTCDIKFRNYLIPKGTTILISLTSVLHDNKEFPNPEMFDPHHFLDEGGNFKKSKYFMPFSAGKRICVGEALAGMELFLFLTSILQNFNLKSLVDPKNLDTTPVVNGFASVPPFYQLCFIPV
- Test summary: Direct CYP inhibition assay using pooled HLM
- Stated conditions: microsomes
Endpoint label: IC50 (µM)
Please reply with the bare figure in µM and do not write the unit itself.

Note IC50 for the compound shown: COc1ccc2c(c1O)CN1CCc3cc4c(cc3C1C2)OCO4 (stereo not shown) [TRB, Tetrahydroberberrubine·acetate]
6.5

* * *

- Target desc: CYP1A2 (Homo sapiens, UniProt P05177)
- Sequence (P05177 whole entry): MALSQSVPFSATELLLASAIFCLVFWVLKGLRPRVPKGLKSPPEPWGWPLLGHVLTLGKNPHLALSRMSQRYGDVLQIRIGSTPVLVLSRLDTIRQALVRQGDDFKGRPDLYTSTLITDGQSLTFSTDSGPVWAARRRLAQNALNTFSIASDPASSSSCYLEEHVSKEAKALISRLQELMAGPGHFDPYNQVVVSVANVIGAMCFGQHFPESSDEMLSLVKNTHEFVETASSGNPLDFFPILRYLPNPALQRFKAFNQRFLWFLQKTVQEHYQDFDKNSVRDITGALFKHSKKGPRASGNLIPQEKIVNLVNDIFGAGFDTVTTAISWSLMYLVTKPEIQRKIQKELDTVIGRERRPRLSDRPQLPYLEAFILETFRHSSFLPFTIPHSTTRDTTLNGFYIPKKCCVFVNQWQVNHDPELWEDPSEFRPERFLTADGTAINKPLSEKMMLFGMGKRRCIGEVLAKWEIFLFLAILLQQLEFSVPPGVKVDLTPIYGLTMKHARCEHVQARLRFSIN
- Test summary: Direct CYP inhibition assay using pooled HLM
- Stated conditions: microsomes
Endpoint label: pIC50
Scale note: pIC50 = -log10(concentration in M).

Note pIC50 for the compound shown: COc1ccc2c(c1O)CN1CCc3cc4c(cc3C1C2)OCO4 (stereo not shown) [TRB, Tetrahydroberberrubine·acetate]
5.16

* * *

- Test summary: Metabolic stability and metabolite formation of BBR in pooled HLM
- Stated conditions: BBR 1 µM in pooled HLM with NADPH-generating system; 0 min; mean ± SD
Endpoint label: Concentration in incubation mixture (elimination of BBR and formation of its metabolites) (nM)
Please reply with the bare figure in nM and do not write the unit itself.

Note Concentration in incubation mixture (elimination of BBR and formation of its metabolites) for the compound shown: "COc1ccc2cc3[n+](cc2c1O)CCc1cc2c(cc1-3)OCO2"
5.4

Note Concentration in incubation mixture (elimination of BBR and formation of its metabolites) for the compound shown: "COc1ccc2cc3[n+](cc2c1OC)CCc1cc2c(cc1-3)OCO2"
1049

Note Concentration in incubation mixture (elimination of BBR and formation of its metabolites) for the compound shown: "COc1c(O)ccc2cc3[n+](cc12)CCc1cc2c(cc1-3)OCO2"
5.4

Note Concentration in incubation mixture (elimination of BBR and formation of its metabolites) for the compound shown: "COc1ccc2cc3[n+](cc2c1OC)CCc1cc(O)c(O)cc1-3"
6.1

Note Concentration in incubation mixture (elimination of BBR and formation of its metabolites) for the compound shown: "COc1cc2c(cc1O)CC[n+]1cc3c(OC)c(OC)ccc3cc1-2"
10.4

Where these numbers come from: paper PMC7600264
